target.or.test.system: Estrogen receptor beta (Homo sapiens) (UniProt Q92731)
Sequence (Q92731 whole entry, looked up): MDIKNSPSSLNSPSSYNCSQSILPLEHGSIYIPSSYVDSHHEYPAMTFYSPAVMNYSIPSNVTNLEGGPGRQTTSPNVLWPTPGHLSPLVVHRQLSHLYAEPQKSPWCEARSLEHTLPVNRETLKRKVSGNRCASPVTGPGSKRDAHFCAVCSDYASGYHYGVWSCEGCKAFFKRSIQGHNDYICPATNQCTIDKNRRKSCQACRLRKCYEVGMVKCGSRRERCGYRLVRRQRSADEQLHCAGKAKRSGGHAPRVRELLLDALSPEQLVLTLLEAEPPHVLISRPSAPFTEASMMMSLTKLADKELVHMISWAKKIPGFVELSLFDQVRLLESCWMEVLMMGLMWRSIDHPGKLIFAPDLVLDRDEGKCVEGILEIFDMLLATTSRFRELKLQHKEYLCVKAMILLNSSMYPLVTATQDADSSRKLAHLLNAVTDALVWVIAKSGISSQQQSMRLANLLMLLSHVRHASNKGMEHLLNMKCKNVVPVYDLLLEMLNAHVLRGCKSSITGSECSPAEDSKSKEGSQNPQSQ
method: Binding affinity to human ERbeta relative to estradiol by radiometric binding assay
measurement.name: relative binding affinity (RBA)

Some solved entries appear below for comparison.
molecule	relative binding affinity (RBA)
Oc1ccc(C(=C2CCC(CCF)CC2)c2ccc(O)cc2)cc1 (stereo unspecified)	18.9
CCC1CCC(=C(c2ccc(O)cc2)c2ccc(O)cc2)CC1 (stereo unspecified)	75.6
OCCCC1CCCC(=C(c2ccc(O)cc2)c2ccc(O)cc2)C1 (stereo unspecified)	46.1

a. CCOC(=O)C1CCC(=C(c2ccc(O)cc2)c2ccc(O)cc2)CC1 (stereo unspecified)
b. Oc1ccc(C(=C2CCCCC2)c2ccc(O)cc2)cc1
c. COC(=O)C1CCCC(=C(c2ccc(O)cc2)c2ccc(O)cc2)C1 (stereo unspecified)
Number of molecules to sort: 3. Sort criterion: relative binding affinity (RBA), ascending. Response format: the labels, sorted as the prompt asks. a, c, b
(a: 3.02, c: 36.5, b: 285)
